B1: glmS ribozyme (parent)
chain: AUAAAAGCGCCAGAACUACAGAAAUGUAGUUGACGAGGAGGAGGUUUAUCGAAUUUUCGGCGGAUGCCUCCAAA

Variants of: B1
procedureText: self-cleavage kobs at 10000 uM GlcN6P; higher = faster cleavage; RNA array
assaySetup: with glucosamine-6-phosphate
Variants at the floor of the assay were thinned out.
valueKind: self-cleavage kobs at 10000 uM GlcN6P

Documented self-cleavage kobs at 10000 uM GlcN6P of G29A C71U : 0.00436 s⁻¹

Documented self-cleavage kobs at 10000 uM GlcN6P of G9A U56C C58G : < 1e-05 s⁻¹

Documented self-cleavage kobs at 10000 uM GlcN6P of G51C U54G C70A : < 1e-05 s⁻¹

Documented self-cleavage kobs at 10000 uM GlcN6P of C10A U31C : < 1e-05 s⁻¹

Documented self-cleavage kobs at 10000 uM GlcN6P of G60U G62A C70U : < 1e-05 s⁻¹

Documented self-cleavage kobs at 10000 uM GlcN6P of U46A A64G : 0.00373 s⁻¹

Documented self-cleavage kobs at 10000 uM GlcN6P of G13U U55G : 0.00109 s⁻¹

Documented self-cleavage kobs at 10000 uM GlcN6P of G29U C70U : 0.00452 s⁻¹

Documented self-cleavage kobs at 10000 uM GlcN6P of C34U U54A U69G : 0.000125 s⁻¹

Documented self-cleavage kobs at 10000 uM GlcN6P of C8U G37C A39G : < 1e-05 s⁻¹

Documented self-cleavage kobs at 10000 uM GlcN6P of G44A G51U U57A : < 1e-05 s⁻¹

Documented self-cleavage kobs at 10000 uM GlcN6P of G51C U56A : < 1e-05 s⁻¹

Documented self-cleavage kobs at 10000 uM GlcN6P of A14C U55G C67G : 0.000215 s⁻¹

Documented self-cleavage kobs at 10000 uM GlcN6P of U31C G32A A39G : 0.0014 s⁻¹

Documented self-cleavage kobs at 10000 uM GlcN6P of U46C U65G : 0.000113 s⁻¹

Documented self-cleavage kobs at 10000 uM GlcN6P of A15G G51U C71A : < 1e-05 s⁻¹

Documented self-cleavage kobs at 10000 uM GlcN6P of G38A G44C U47A : < 1e-05 s⁻¹

Documented self-cleavage kobs at 10000 uM GlcN6P of C10G U65A : < 1e-05 s⁻¹

Documented self-cleavage kobs at 10000 uM GlcN6P of A14U G44A : 5.38e-05 s⁻¹

Documented self-cleavage kobs at 10000 uM GlcN6P of C10G C50U G62U C70G : < 1e-05 s⁻¹

Documented self-cleavage kobs at 10000 uM GlcN6P of G41U U49A : < 1e-05 s⁻¹

Documented self-cleavage kobs at 10000 uM GlcN6P of A6U G9A G29C C50U U69G : 9.44e-05 s⁻¹

Documented self-cleavage kobs at 10000 uM GlcN6P of C34U A53G : < 1e-05 s⁻¹

Documented self-cleavage kobs at 10000 uM GlcN6P of A12U G41C U46G C68A : < 1e-05 s⁻¹

Documented self-cleavage kobs at 10000 uM GlcN6P of C16G A36G : < 1e-05 s⁻¹

Documented self-cleavage kobs at 10000 uM GlcN6P of G29C C34U G37U C70U : 3.91e-05 s⁻¹

Documented self-cleavage kobs at 10000 uM GlcN6P of G40A C58A : 7.56e-05 s⁻¹

Documented self-cleavage kobs at 10000 uM GlcN6P of C8U U47C : < 1e-05 s⁻¹

Documented self-cleavage kobs at 10000 uM GlcN6P of C34U G60U : < 1e-05 s⁻¹

Documented self-cleavage kobs at 10000 uM GlcN6P of U55C U56C : 8.84e-05 s⁻¹

Documented self-cleavage kobs at 10000 uM GlcN6P of A36G G63A C67G : < 1e-05 s⁻¹

Documented self-cleavage kobs at 10000 uM GlcN6P of G38A G43C U65G : < 1e-05 s⁻¹

Documented self-cleavage kobs at 10000 uM GlcN6P of C16G A39C : 0.000629 s⁻¹

Documented self-cleavage kobs at 10000 uM GlcN6P of U30G A39U : 0.00645 s⁻¹

Documented self-cleavage kobs at 10000 uM GlcN6P of G32U C67A : 0.000296 s⁻¹

Documented self-cleavage kobs at 10000 uM GlcN6P of A39U A42U U55G G66U : 0.000198 s⁻¹

Documented self-cleavage kobs at 10000 uM GlcN6P of G35U G43U U54A : < 1e-05 s⁻¹

Documented self-cleavage kobs at 10000 uM GlcN6P of A15G G59U C67U : 4.69e-05 s⁻¹

Documented self-cleavage kobs at 10000 uM GlcN6P of A33C C50A C67G C68G : 7.88e-05 s⁻¹

Documented self-cleavage kobs at 10000 uM GlcN6P of A12C C16U G41U : 0.000649 s⁻¹

Documented self-cleavage kobs at 10000 uM GlcN6P of A39U A42G C67U : 0.0241 s⁻¹

Documented self-cleavage kobs at 10000 uM GlcN6P of U31C C58A G63U : < 1e-05 s⁻¹

Documented self-cleavage kobs at 10000 uM GlcN6P of U54G C58G : 0.000164 s⁻¹

Documented self-cleavage kobs at 10000 uM GlcN6P of A6U G41C : < 1e-05 s⁻¹

Documented self-cleavage kobs at 10000 uM GlcN6P of G32C U54C : 8.23e-05 s⁻¹

Documented self-cleavage kobs at 10000 uM GlcN6P of A6G G66A : 0.000325 s⁻¹

Where these numbers come from: the supplement of paper PMC7125110
